Tested on: wild oat
assay-comment: Test B pre/postemergence wild oat
Assay type: in vivo, Avena fatua
measurement-context: Preemergence, Rate 250 g/ha; scale 0 to 10 (0 no effect, 10 complete control)
endpoint-label: Plant response rating, Wild oats

For orientation, consider the following solved cases.
• CC[C@@H](C)n1c(=O)on(C(=O)N(c2ccc(F)cc2F)C(C)C)c1=O = 8
• CCCCCn1c(=O)on(C(=O)N(c2ccc(F)cc2F)C(C)C)c1=O = 0
• CC(=O)NCn1c(=O)on(C(=O)N(c2ccc(F)cc2F)C(C)C)c1=O = 0
• CCOC(=O)CC(C(=O)OCC)n1c(=O)on(C(=O)N(c2ccccc2)C(C)C)c1=O (centres unmarked) = 0

// switching to the query molecule
Task item: So what does the record say about Plant response rating, Wild oats for CC(C)N(C(=O)n1oc(=O)n(CC(=O)C2CCC2)c1=O)c1ccc(Cl)cc1 ?
Reply: 0

----------
Tested on: blackgrass
assay-comment: Test B pre/postemergence blackgrass
Format: in vivo, Alopecurus myosuroides
measurement-context: Postemergence, Rate 250 g/ha; scale 0 to 10, 0 no effect, 10 complete control
endpoint-label: Blackgrass plant response rating
One number for each entry.

For orientation, consider the following solved cases.
• Cc1ccccc1-n1c(=O)on(C(=O)N(c2cc(F)ccc2F)C(C)C)c1=O = 2
• CCn1c(=O)on(C(=O)N(c2ccc(F)cc2)C(C)C)c1=O = 8
• Cc1nn(C)c(Cl)c1-n1c(=O)on(C(=O)N(c2ccc(F)cc2)C(C)C)c1=O = 4

// switching to the query compound
Task item: Give the reported Blackgrass plant response rating for CCn1c(=O)on(C(=O)N(c2ccc(F)cc2F)C(C)C)c1=O (system: blackgrass).
Reply: 9

----------
Tested on: cocklebur
assay-comment: Test B pre/postemergence cocklebur
Type: in vivo, Xanthium strumarium
measurement-context: Rate 250 g/ha; Postemergence
Experimental: […] At the same time, these crop and weed species were also treated with postemergence applications of test chemicals formulated in the same manner. […] Treated plants and controls were maintained in a greenhouse for twelve to sixteen days, after which all species were compared to controls and visually evaluated. […]
For each of the molecules below, state its Plant response rating (0 to 10; 0 is no effect, 10 is complete control), Cocklebur.

- Cc1ccccc1-n1c(=O)on(C(=O)N(c2ccc(-c3ccccc3)cc2)C(C)C)c1=O [Compound 187]: 0
- COCCOCn1c(=O)on(C(=O)N(c2ccc(F)cc2)C(C)C)c1=O [Compound 258]: 0
- CCC(=O)Cn1c(=O)on(C(=O)N(c2ccc(F)cc2)C(C)C)c1=O [Compound 252]: 0

// switching to the query molecule
Task item: So what does the record say about Plant response rating (0 to 10; 0 is no effect, 10 is complete control), Cocklebur for CCOC(=O)C(C)N(C(=O)n1oc(=O)n(-c2c(C)cccc2C)c1=O)c1ccc(F)cc1 (stereo not shown) [Compound 244] ?
Reply: 0

----------
Tested on: purple nutsedge
assay-comment: Test B pre/postemergence purple nutsedge
Assay type: in vivo, Cyperus rotundus
measurement-context: Postemergence, Rate 250 g/ha; scale 0 to 10, 0 no effect, 10 complete control
endpoint-label: Nutsedge plant response rating
Numbers only.

For orientation, consider the following solved cases.
* Cc1ccccc1-n1c(=O)on(C(=O)N(c2ccc(F)cc2F)C(C)C)c1=O | 0
* CCc1noc(C)c1-n1c(=O)on(C(=O)N(c2ccc(F)cc2)C(C)C)c1=O | 0

Would you be so kind as to report Nutsedge plant response rating for each listed record?
1. CCN(CC)C(=O)n1oc(=O)n(-c2ccc(OC(F)(F)F)cc2)c1=O
2. Cc1ccccc1-n1c(=O)on(C(=O)N(c2cc(F)ccc2F)C(C)C)c1=O

Reply:
[0, 0]

----------
Test system: sugar beet
assay-comment: Test B pre/postemergence sugar beet
Assay type: in vivo, Beta vulgaris
measurement-context: Preemergence, Rate 500 g/ha; scale 0 to 10, 0 is no effect, 10 is complete control
endpoint-label: Sugarbeets plant response rating

For orientation, consider the following solved cases.
* CC(C)N(C(=O)n1oc(=O)n(C(C)C#N)c1=O)c1ccc(Cl)cc1 (stereo not drawn) | 0
* CC(C)N(C(=O)n1oc(=O)n(C(C)CCl)c1=O)c1ccccc1 (stereo not drawn) | 8
* CC(C)N(C(=O)n1oc(=O)n(CC#N)c1=O)c1ccc(F)cc1F | 0
* CC(C)N(C(=O)n1oc(=O)n(CC#N)c1=O)c1ccc(Cl)cc1 | 0
* CSCCn1c(=O)on(C(=O)N(c2ccccc2)C(C)C)c1=O | 5

Task item: So what does the record say about Sugarbeets plant response rating for CC(C)N(C(=O)n1oc(=O)n(CCC#N)c1=O)c1ccc(F)cc1F ?
Reply: 8

----------
For each of the compounds below, state its Rice plant response rating.
Tested on: rice
assay-comment: Test B flood test rice
Format: in vivo, Oryza sativa
measurement-context: Rate 500 g/ha; Pre-emergence; flood test species; scale 0 to 10 (0 no effect, 10 complete control)

For orientation, consider the following solved cases.
• CC(C)N(C(=O)n1oc(=O)n(C(C)CCl)c1=O)c1ccccc1 (stereo not drawn) = 0
• Cc1cc(C)c(-n2c(=O)on(C(=O)N(c3ccc(F)cc3)C(C)C)c2=O)c(Br)c1 = 0
• CC(C)N(C(=O)n1oc(=O)n(C2CCCCCC2)c1=O)c1ccccc1 = 2
• CC(C)N(C(=O)n1oc(=O)n(C)c1=O)c1ccccc1 = 0
• CCC(=O)Cn1c(=O)on(C(=O)N(c2ccc(F)cc2)C(C)C)c1=O = 0

Task item: So what does the record say about Rice plant response rating for CC(C)N(C(=O)n1oc(=O)n(C(C)Cl)c1=O)c1ccc(F)cc1 (stereo not drawn) ?
Reply: 0

----------
Tested on: pigweed
assay-comment: Test B pre/postemergence pigweed
Assay type: in vivo, Amaranthus retroflexus
measurement-context: Postemergence, Rate 250 g/ha; scale 0 to 10, 0 is no effect, 10 is complete control
endpoint-label: Plant response rating, Redroot pigweed
Give bare numbers.

For orientation, consider the following solved cases.
* CC(C)N(C(=O)n1oc(=O)n(C(C)Cl)c1=O)c1ccc(F)cc1 (stereo not shown) | 0
* CC(C)N(C(=O)n1oc(=O)n(C)c1=O)c1ccccc1 | 4
* CC(C)N(C(=O)n1oc(=O)n(C(C)CCl)c1=O)c1ccccc1 (stereo not shown) | 7

// switching to the query compound
Task item: So what does the record say about Plant response rating, Redroot pigweed for CC(C)N(C(=O)n1oc(=O)[nH]c1=O)c1ccc(F)cc1F ?
Reply: 0

----------
System: bedstraw
assay-comment: Test B pre/postemergence bedstraw
Type: in vivo, Galium aparine
measurement-context: Preemergence, Rate 125 g/ha; scale of 0 to 10 where 0 is no effect and 10 is complete control
endpoint-label: Plant response rating, Bedstraw

For orientation, consider the following solved cases.
• CC(C)N(C(=O)n1oc(=O)n(CC(F)F)c1=O)c1ccc(F)cc1F = 3
• CC(C)N(C(=O)n1oc(=O)n(CC#N)c1=O)c1ccc(Cl)cc1 = 0
• CC(C)N(C(=O)n1oc(=O)n(C(C)C2CC2)c1=O)c1ccc(F)cc1F (centres unmarked) = 10
• CC(C)N(C(=O)n1oc(=O)n(C(C)C2=NOCC2)c1=O)c1ccc(F)cc1F (racemic) = 0

// switching to the query compound
Task item: So what does the record say about Plant response rating, Bedstraw for CC(C)N(C(=O)n1oc(=O)n(CCCC#N)c1=O)c1ccccc1 ?
Reply: 0

----------
For each of the molecules below, state its Plant response rating, Nutsedge.
Test system: purple nutsedge
assay-comment: Test B pre/postemergence purple nutsedge
Type: in vivo, Cyperus rotundus
measurement-context: Preemergence, Rate 250 g/ha; scale of 0 to 10 where 0 is no effect and 10 is complete control

• CCn1c(=O)on(C(=O)N(c2ccc(F)cc2F)C(C)C)c1=O = 0

Would you be so kind as to report Plant response rating, Nutsedge for each listed record?
1. CCn1c(=O)on(C(=O)N(c2ccc(F)cc2)C(C)C)c1=O
2. CC(C)N(C(=O)n1oc(=O)n(-c2cnn(C)c2Cl)c1=O)c1ccccc1
3. CC(C)N(C(=O)n1oc(=O)n(-c2cnn(C)c2)c1=O)c1ccc(F)cc1

Reply:
[2, 0, 0]

----------
For each of the compounds below, state its B. signalgrass plant response rating.
Test system: surinam grass
assay-comment: Test B pre/postemergence surinam grass
Format: in vivo, Brachiaria decumbens
measurement-context: Postemergence, Rate 500 g/ha; scale of 0 to 10 where 0 is no effect and 10 is complete control
Numbers only.

For orientation, consider the following solved cases.
• CC(C)N(C(=O)n1oc(=O)n(CCl)c1=O)c1ccc(Cl)cc1 [Compound 422] = 0
• CC(C)N(C(=O)n1oc(=O)n(Cc2cnc(Cl)s2)c1=O)c1ccc(F)cc1 [Compound 482] = 0
• CC(C)N(C(=O)n1oc(=O)n(CC2=NOCCC2)c1=O)c1ccccc1 [Compound 430] = 8
• CC(C)N(C(=O)n1oc(=O)n(CC#N)c1=O)c1ccc(Cl)cc1 [Compound 476] = 0

Would you be so kind as to report B. signalgrass plant response rating for each listed record?
1. CC(C)N(C(=O)n1oc(=O)n(C(C)CCl)c1=O)c1ccc(Cl)cc1 (stereo not drawn) [Compound 456]
2. CC(C)N(C(=O)n1oc(=O)n(CC#N)c1=O)c1ccc(F)cc1F [Compound 431]

Reply:
1: 2; 2: 2
